{"compound": "*CC(C)(C)C1C(=O)N(c2c(CC)cccc2CC)C(=O)C1* (repeat unit)", "glass transition temperature / °C": 210.00}
{"compound": "*CC(*)C(=O)Oc1ccc(C(=O)Oc2ccc(OC(=O)c3ccc(OCCCC)cc3)cc2)cc1 (repeat unit)", "glass transition temperature / °C": 47.00}
{"compound": "*CCCCOC(=O)CCC(=O)O* (repeat unit)", "glass transition temperature / °C": -32.00}
{"compound": "*Oc1cc(C)c(C(c2cc(C(C)C)c(Oc3ccc(C(=O)c4ccc(*)cc4)cc3)cc2C)c2ccccc2C(=O)O)cc1C(C)C (repeat unit)", "glass transition temperature / °C": 228.00}
{"compound": "*CC(*)(C)C(=O)OCC(F)(F)C(F)(F)C(F)(F)C(F)(F)C(F)(F)C(F)F (repeat unit)", "glass transition temperature / °C": 12.50}
{"compound": "*Oc1cc(CCCCCCCCCCC)cc(OC(=O)c2cccc(C(*)=O)c2)c1 (repeat unit)", "glass transition temperature / °C": 34.50}
{"compound": "*Oc1ccc(Oc2ccc(C(=O)c3ccccc3-c3ccccc3C(=O)c3ccc(*)cc3)cc2)cc1 (repeat unit)", "glass transition temperature / °C": 175.00}
{"compound": "*Oc1ccc(Nc2ccc(S(=O)(=O)c3ccc(Nc4ccc(Oc5ccc(C(C)(C)c6ccc(*)cc6)cc5)cc4)cc3)cc2)cc1 (repeat unit)", "glass transition temperature / °C": 145.00}

###

Recorded glass transition temperature, one value per entry.

{"compound": "*c1cccc(S(=O)(=O)NCCNS(*)(=O)=O)c1 (repeat unit)", "glass transition temperature, °C": 107.00}
{"compound": "*CCCCCC(=O)Oc1ccc(OC(=O)CCCCCn2c(=O)c3cc4c(=O)n(*)c(=O)c4cc3c2=O)c(C)c1 (repeat unit)", "glass transition temperature, °C": 78.00}
{"compound": "*c1ccc2c(c1)C(=O)N(c1ccc(Oc3c(C(C)(C)C)cc(-c4ccc(N5C(=O)c6ccc(C(*)(C(F)(F)F)C(F)(F)F)cc6C5=O)cc4)cc3C(C)(C)C)cc1)C2=O (repeat unit)", "glass transition temperature, °C": 355.00}
{"compound": "*C(=O)Nc1ccc(Oc2cccc(Oc3ccc(NC(=O)c4ccc5c(c4)C(=O)N(c4ccc(Oc6ccc(C7(c8ccc(Oc9ccc(N%10C(=O)c%11ccc(*)cc%11C%10=O)cc9)cc8)NC(=O)c8ccccc87)cc6)cc4)C5=O)cc3)c2)cc1 (repeat unit)", "glass transition temperature, °C": 288.00}
{"compound": "*Oc1ccc(C(C)(C)c2ccc(OC(*)=O)c(Cl)c2)cc1Cl (repeat unit)", "glass transition temperature, °C": 147.00}
{"compound": "*Oc1ccc(NC(=O)c2cc(C(=O)Nc3ccc(*)cc3)c(C(=O)OCC)cc2C(=O)OCC)cc1 (repeat unit)", "glass transition temperature, °C": 208.1}
{"compound": "*CC(*)OC(=O)CC1CCCC1 (repeat unit)", "glass transition temperature, °C": -3.00}

###

glass transition temperature vs 200 °C: less than gives t; not less than gives f.

{"compound": "*CC(*)c1ccccc1COC (repeat unit)", "group": "t"}
{"compound": "*CC(*)c1ccccc1Br (repeat unit)", "group": "t"}
{"compound": "*c1ccc(Oc2cc3ccccc3cc2Oc2ccc(N3C(=O)c4ccc(S(=O)(=O)c5ccc6c(c5)C(=O)N(*)C6=O)cc4C3=O)cc2)cc1 (repeat unit)", "group": "f"}
{"compound": "*c1ccc(NC(=O)c2ccc(OCCOCCOCCOc3ccc(C(=O)Nc4ccc5[nH]c(*)nc5c4)cc3)cc2)cc1 (repeat unit)", "group": "t"}
{"compound": "*c1ccc2c(c1)C(=O)N(c1cc(Oc3c(C)cc(-c4cc(C)c(Oc5cc(N6C(=O)c7ccc(C(*)(C(F)(F)F)C(F)(F)F)cc7C6=O)cc(C(F)(F)F)c5)c(C)c4)cc3C)cc(C(F)(F)F)c1)C2=O (repeat unit)", "group": "f"}
{"compound": "*O[Si](C)(C)c1cc(OCCO)c([Si](*)(C)C)cc1OCCO (repeat unit)", "group": "t"}
{"compound": "*c1ccc2c(c1)C(=O)N(c1ccc(OCCCCCCCCCCOc3ccc(N4C(=O)c5ccc(C(*)(C(F)(F)F)C(F)(F)F)cc5C4=O)cc3)cc1)C2=O (repeat unit)", "group": "t"}
{"compound": "*C(=O)c1ccc2c(c1)C(=O)N(c1cc(N3C(=O)c4ccc(*)cc4C3=O)cc(C(F)(F)F)c1)C2=O (repeat unit)", "group": "f"}
{"compound": "*O[Si](*)(C)C1CC2CC1CC2OC(=O)OC(C)(C)C (repeat unit)", "group": "t"}
{"compound": "*Oc1ccc(C(C)(CC)c2ccc(OC(*)=O)c(C)c2)cc1C (repeat unit)", "group": "t"}
{"compound": "*c1ccc(Oc2ccc(NC(=O)c3ccc4c(c3)C(=O)N(c3ccc(Sc5ccc(N6C(=O)c7ccc(C(=O)Nc8ccc(Oc9ccc(C%10(*)NC(=O)c%11ccccc%11%10)cc9)cc8)cc7C6=O)cc5)cc3)C4=O)cc2)cc1 (repeat unit)", "group": "f"}
{"compound": "*c1ccc(Oc2ccc(C(=O)c3cccc(C(=O)c4ccc(Oc5ccc(N6C(=O)c7ccc(Oc8ccc9c(c8)C(=O)N(*)C9=O)cc7C6=O)cc5)cc4)c3)cc2)cc1 (repeat unit)", "group": "f"}
{"compound": "*CC(*)C(=O)c1ccc(Br)c(OC)c1 (repeat unit)", "group": "t"}
{"compound": "*CC(CO*)(CS(C)(=O)=O)CS(C)(=O)=O (repeat unit)", "group": "t"}
{"compound": "*C(CC(C)C)C(=O)Nc1ccc(Oc2ccc(NC(=O)Nc3ccc(Cc4ccc(NC(=O)Nc5ccc(Oc6ccc(NC(=O)C(CC(C)C)n7c(=O)c8cc9c(=O)n(*)c(=O)c9cc8c7=O)cc6)cc5)cc4)cc3)cc2)cc1 (repeat unit)", "group": "t"}
{"compound": "*OC(COC(=O)c1ccccc1-c1ccccc1C(*)=O)COc1ccc(/N=N/c2ccc(C#N)cc2)cc1 (repeat unit)", "group": "t"}
{"compound": "*Nc1cccc(NC(=O)c2cccc(C(*)=O)c2)c1 (repeat unit)", "group": "f"}
{"compound": "*c1ccc(NC(=O)c2ccc(NC(=O)c3ccc([Si](C)(C)c4ccc(C(=O)Nc5ccc(C(=O)Nc6ccc(-c7sc(*)c(-c8ccccc8)c7-c7ccccc7)cc6)cc5)cc4)cc3)cc2)cc1 (repeat unit)", "group": "f"}
{"compound": "*c1ccc(Oc2ccc(-n3c(=O)c4c(Oc5ccc(OCCCC)cc5)c5c(=O)n(*)c(=O)c5c(Oc5ccc(OCCCC)cc5)c4c3=O)cc2)cc1 (repeat unit)", "group": "f"}
{"compound": "*c1ccc(-c2ccc(-n3c(=O)c4cc5c(=O)n(*)c(=O)c5cc4c3=O)cc2F)c(F)c1 (repeat unit)", "group": "f"}
{"compound": "*Oc1ccc(CC(NC(=O)CCc2ccc(OC(=O)COCC(*)=O)cc2)C(=O)OCc2ccccc2)cc1 (repeat unit)", "group": "t"}
{"compound": "*c1ccc2c(c1)C(=O)N(c1ccc(Oc3ccc(N4C(=O)c5ccc(C(F)(F)C(F)(F)C(F)(F)C(*)(F)F)cc5C4=O)cc3)cc1)C2=O (repeat unit)", "group": "f"}
{"compound": "*c1ccc2c(c1)C(=O)N(c1cccc(N3C(=O)c4ccc(C(*)(C(F)(F)F)C(F)(F)F)cc4C3=O)c1)C2=O (repeat unit)", "group": "f"}
{"compound": "*c1ccc2c(c1)C(CCCCCC)(CCCCCC)c1cc(-c3cc(CCCCCC)c(*)cc3CCCCCC)ccc1-2 (repeat unit)", "group": "t"}
{"compound": "*c1ccc(-c2cc(CCCCCCCC)c(-c3ccc(-c4ccc(-c5sc(-c6ccc([Si](*)(C)C)s6)cc5CCCCCCCC)s4)s3)s2)s1 (repeat unit)", "group": "t"}
{"compound": "*CC(=O)NCCCCCCNC(=O)Cc1ccc(O*)cc1 (repeat unit)", "group": "t"}
{"compound": "*c1ccc(Oc2ccc(N3C(=O)CC4C(CC5C(=O)N(*)C(=O)C54)C3=O)cc2)cc1 (repeat unit)", "group": "f"}

###

glass transition temperature vs 100 °C: less than gives Yes; not less than gives No.

{"compound": "*CCCOC(=O)C(C)O* (repeat unit)", "group": "Yes"}
{"compound": "*Oc1ccc(Oc2ccc(C(=O)Nc3ccc(Oc4ccc(-c5ccc(Oc6ccc(NC(=O)c7ccc(*)cc7)cc6)cc5)cc4)cc3)cc2)cc1C (repeat unit)", "group": "No"}
{"compound": "*Nc1cccc2c(NC(=O)c3cccc(C(*)=O)c3)cccc12 (repeat unit)", "group": "No"}
{"compound": "*C(=O)OCCCCCCCCCCCCOC(=O)c1ccc2c(c1)C(=O)N(c1ccc(Oc3ccc(N4C(=O)c5ccc(*)cc5C4=O)cc3)cc1)C2=O (repeat unit)", "group": "No"}
{"compound": "*CC(*)(CC(=O)OC)C(=O)OC (repeat unit)", "group": "Yes"}
{"compound": "*Nc1ccc(Cc2ccc(NC(=O)c3cc(NC(=O)c4ccccc4)cc(C(*)=O)c3)cc2)cc1 (repeat unit)", "group": "No"}
{"compound": "*C(=O)c1ccc2c(c1)C(=O)N(c1ccc(Oc3ccc(C(c4ccc(Oc5ccc(N6C(=O)c7ccc(*)cc7C6=O)cc5)cc4)(C(F)(F)F)C(F)(F)F)cc3)cc1)C2=O (repeat unit)", "group": "No"}
